test system: human iPS cells; assay: Cell adhesiveness evaluation 2 (synthetic polypeptides added to cells seeded on natural vitronectin); type: cell-based; settings: 100 μM synthetic polypeptide
PROPERTY NAME: adhesion of cells to the natural vitronectin on addition of the peptide (in words)

Past entries and their recorded results:
{"SEQ": "TAECKPQVTRGEVFTMPEDE [Peptide-8]", "RECORDED VALUE": "not hindered"}
{"SEQ": "EGFNVDKKCQCDELCSYYQS [Peptide-3, polypeptide synthesized by an Fmoc solid-phase synthesis method]", "RECORDED VALUE": "not hindered"}
{"SEQ": "KGRCTEGFNVDKKCQCDELC [Peptide-2, polypeptide synthesized by an Fmoc solid-phase synthesis method]", "RECORDED VALUE": "not hindered"}
{"SEQ": "TAECKPQVTRGDVFTMPEDE [Peptide-6, polypeptide synthesized by an Fmoc solid-phase synthesis method]", "RECORDED VALUE": "significantly hindered"}
{"SEQ": "DKKCQCDELCSYYQSCCTDY [Peptide-4, polypeptide synthesized by an Fmoc solid-phase synthesis method]", "RECORDED VALUE": "significantly hindered"}
{"SEQ": "DQESCKGRCTEGFNVDKKCQ [Peptide-1, polypeptide synthesized by an Fmoc solid-phase synthesis method]", "RECORDED VALUE": "not hindered"}
{"SEQ": "CCTDYTAECKPQVTRGEVFT [Peptide-7]", "RECORDED VALUE": "not hindered"}

--- query ---
# input Returns the measured adhesion of cells to the natural vitronectin on addition of the peptide (in words) for the input sequence. Input: CCTDYTAECKPQVTRGDVFT [Peptide-5, polypeptide synthesized by an Fmoc solid-phase synthesis method]
# output significantly hindered
